Consider the following binders and their measured Kd readings.
tested-on: T1, Fc-MST-HN (human, UniProt P01857-1 104-330 = IgG part, M252Y; S254T; T256E; H433K; N434F)
T1 construct: domain: Fc fragment; MST-HN = M252Y S254T T256E H433K N434F (EU numbering); also called IgG1-Fc MST-HN
experimental-details: SPR (IBIS MX96), FcγR captured on sensor, Fc fragment titrated, pH 7.4, equilibrium 1:1 fit
// note: answer is a bare numeric in nM

human FcγRIIa-131H (receptor, UniProt P12318 34-218, looked up, C-terminal biotin, Bought, C-terminally biotinylated; captured on a streptavidin sensor) QAAAPPKAVLKLEPPWINVLQEDSVTLTCQGARSPESDSIQWFHNGNLIPTHTQPSYRFKANNNDSGEYTCQTGQTSLSDPVHLTVLSEWLVLQTPHLEFQEGETIMLRCHSWKDKPLVKVTFFQNGKSQKFSHLDPTFSIPQANHSHSGDYHCTGNIGYTLFSSKPVTITVQVPSMGSSSPMGI	1650

API: the following record is the query input.
Challenge: Give Kd for human FcγRIIa-131R (receptor, UniProt P12318 34-218, looked up, C-terminal biotin, Bought, C-terminally biotinylated; captured on a streptavidin sensor) QAAAPPKAVLKLEPPWINVLQEDSVTLTCQGARSPESDSIQWFHNGNLIPTHTQPSYRFKANNNDSGEYTCQTGQTSLSDPVHLTVLSEWLVLQTPHLEFQEGETIMLRCHSWKDKPLVKVTFFQNGKSQKFSRLDPTFSIPQANHSHSGDYHCTGNIGYTLFSSKPVTITVQVPSMGSSSPMGI
Response given: 1640
